- tested_target: Human CARM1 (PRMT4) (Homo sapiens)
- Construct: Flag-CARM1-His was eluted with 200 ug/ml FLAG peptide in buffer A
- Sequence (Q86X55 other isoform, or with tags, fused parts or gaps): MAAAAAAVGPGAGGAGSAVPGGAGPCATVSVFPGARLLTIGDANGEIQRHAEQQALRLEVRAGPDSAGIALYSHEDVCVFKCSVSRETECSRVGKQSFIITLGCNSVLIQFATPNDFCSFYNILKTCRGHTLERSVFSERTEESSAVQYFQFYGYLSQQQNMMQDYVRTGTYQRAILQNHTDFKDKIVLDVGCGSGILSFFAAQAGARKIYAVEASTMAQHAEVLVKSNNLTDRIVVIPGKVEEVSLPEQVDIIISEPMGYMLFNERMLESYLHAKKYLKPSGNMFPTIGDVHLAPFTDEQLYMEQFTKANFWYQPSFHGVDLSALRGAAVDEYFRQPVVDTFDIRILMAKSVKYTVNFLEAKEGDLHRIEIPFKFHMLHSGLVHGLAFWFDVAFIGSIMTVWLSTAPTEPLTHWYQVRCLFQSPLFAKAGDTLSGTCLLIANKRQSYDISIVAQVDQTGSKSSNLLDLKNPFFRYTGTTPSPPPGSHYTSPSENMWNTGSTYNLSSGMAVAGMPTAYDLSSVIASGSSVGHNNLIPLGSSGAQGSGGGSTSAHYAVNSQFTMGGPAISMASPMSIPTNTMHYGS
- procedure_text: CARM1 enzyme assay on peptide substrate (3H-SAM Flashplate)
- applied_conditions: CARM1 0.25 nM, 3H-SAM 30 nM, peptide 250 nM; read-out: Biochem IC50
measurement_kind: IC50

Please review the following examples before continuing.
- CC(C)n1ncc2c(N[C@@H]3CO[C@H]4OCC[C@H]43)cc(-c3cccc(OCC(O)CN)c3)nc21 (some centres unmarked) [Example 6-8]: < 0.1 µM
- C=Cc1cc(OCC(O)CNC)cc(-c2cc(N3CCOCC3)n3ncc(C(C)C)c3n2)c1 (centres unmarked): 0.1 to 1 µM
- CC(C)(C)c1cnn2c(NC3CCOCC3)cc(-c3cccc(OCC(O)CN)c3)nc12 (centres unmarked): < 0.1 µM

Could you now consider this next compound?
Exercise: Quote IC50 reported for CNCC(O)COc1cc(Cl)cc(-c2cc(N3CCOCC3)n3ncc(C(C)C)c3n2)c1 (centres unmarked) please.
Key: < 0.1 µM
